Biological target: GluA2/3 (UniProt P19491+P42263)
Construct: expressed in transfected cells; host or cells: HEK293T (HEK293) cells, transient co-transfection
Sequence (P19491 22-883 isoform P19491-2 limits assumed): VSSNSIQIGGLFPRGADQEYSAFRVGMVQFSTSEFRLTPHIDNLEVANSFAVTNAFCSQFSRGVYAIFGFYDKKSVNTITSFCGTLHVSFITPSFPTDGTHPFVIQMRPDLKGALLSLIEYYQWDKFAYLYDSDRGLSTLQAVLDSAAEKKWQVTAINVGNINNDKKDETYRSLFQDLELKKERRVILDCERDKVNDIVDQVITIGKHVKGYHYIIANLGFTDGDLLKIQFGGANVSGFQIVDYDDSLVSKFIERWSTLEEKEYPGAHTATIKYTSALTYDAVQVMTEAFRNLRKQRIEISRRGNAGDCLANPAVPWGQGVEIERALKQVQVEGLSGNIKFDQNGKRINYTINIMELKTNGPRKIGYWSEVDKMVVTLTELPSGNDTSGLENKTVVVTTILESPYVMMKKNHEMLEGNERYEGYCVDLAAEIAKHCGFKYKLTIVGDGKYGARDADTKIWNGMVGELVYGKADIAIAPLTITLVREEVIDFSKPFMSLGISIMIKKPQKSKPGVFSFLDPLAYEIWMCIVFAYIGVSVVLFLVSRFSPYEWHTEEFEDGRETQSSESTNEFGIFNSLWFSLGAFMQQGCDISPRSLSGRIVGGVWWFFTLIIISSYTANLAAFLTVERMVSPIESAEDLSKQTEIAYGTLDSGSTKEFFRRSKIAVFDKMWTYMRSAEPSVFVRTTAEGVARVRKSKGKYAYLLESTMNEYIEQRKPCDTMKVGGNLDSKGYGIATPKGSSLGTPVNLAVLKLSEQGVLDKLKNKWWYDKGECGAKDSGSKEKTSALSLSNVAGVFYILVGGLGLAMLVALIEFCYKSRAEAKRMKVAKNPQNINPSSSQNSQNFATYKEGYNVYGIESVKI
Sequence (P42263 29-894 isoform P42263-2 limits assumed): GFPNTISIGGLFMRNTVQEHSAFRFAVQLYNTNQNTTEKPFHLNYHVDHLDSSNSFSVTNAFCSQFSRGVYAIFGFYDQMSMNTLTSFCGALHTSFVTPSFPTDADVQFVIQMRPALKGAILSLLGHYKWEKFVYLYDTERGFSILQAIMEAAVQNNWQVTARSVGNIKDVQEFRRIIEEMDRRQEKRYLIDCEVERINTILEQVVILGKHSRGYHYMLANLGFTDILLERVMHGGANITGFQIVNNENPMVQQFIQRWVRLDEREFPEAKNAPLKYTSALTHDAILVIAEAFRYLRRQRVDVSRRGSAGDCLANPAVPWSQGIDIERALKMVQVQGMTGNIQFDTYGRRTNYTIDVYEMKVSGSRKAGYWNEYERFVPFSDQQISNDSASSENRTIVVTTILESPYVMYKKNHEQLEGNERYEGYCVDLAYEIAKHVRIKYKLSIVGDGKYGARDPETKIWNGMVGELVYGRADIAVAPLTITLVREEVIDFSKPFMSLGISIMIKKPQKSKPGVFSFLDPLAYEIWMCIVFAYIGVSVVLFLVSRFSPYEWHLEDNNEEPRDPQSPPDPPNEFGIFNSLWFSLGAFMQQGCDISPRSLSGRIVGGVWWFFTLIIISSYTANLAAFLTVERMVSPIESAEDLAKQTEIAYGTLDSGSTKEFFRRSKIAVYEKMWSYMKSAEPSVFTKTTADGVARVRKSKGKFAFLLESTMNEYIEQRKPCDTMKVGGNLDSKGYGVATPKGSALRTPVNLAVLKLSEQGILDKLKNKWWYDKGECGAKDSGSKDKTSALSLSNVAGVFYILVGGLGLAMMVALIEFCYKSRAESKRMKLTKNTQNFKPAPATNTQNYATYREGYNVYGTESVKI
Test: Whole-cell patch clamp recordings of heteromeric GluA2/3 AMPA receptor currents and kinetics in transfected HEK293t cells
Assay type: cell-based
Conditions: 10 mM glutamate for 1 ms, with compound, mean ± SD
Readout type: t deact (weighted deactivation time constant) (ms)

(I) COc1cc(NC(=O)c2c(-c3c(Cl)cccc3Cl)noc2C)c(OC)cc1Cl
(II) COc1ccccc1Oc1ccc(NC(=O)c2c(-c3c(Cl)cccc3Cl)noc2C)cc1
q: # min-compare on t deact (weighted deactivation time constant) between I and II Write down the label of the entry you select.
a: II
(II: 5.2 ms, I: 7.8 ms)
